The reported numbers originate from ChEMBL document CHEMBL1135666.

Species: Bos taurus
Test name: Kinetic parameter Vmax value for Bovine spleen NTPDase1 hydrolysis.
Type: ADME
Condition details: cattle

Molecule	Vmax
[BH3-]P(=O)(OC[C@H]1O[C@@H](n2cnc3c(N)ncnc32)[C@H](O)[C@@H]1O)OP(=O)([O-])OP(=O)([O-])[O-].[Na+].[Na+].[Na+].[Na+] (stereo partly drawn)	0.78 µmol/min/mg
[BH3-]P(=O)(OC[C@H]1O[C@@H](n2cnc3c(N)nc(SC)nc32)[C@H](O)[C@@H]1O)OP(=O)([O-])OP(=O)([O-])[O-].[Na+].[Na+].[Na+].[Na+] (stereo partly drawn)	0.89 µmol/min/mg
CSc1nc(N)c2ncn([C@@H]3O[C@H](COP(=O)([O-])OP(=O)([O-])OP(=O)([O-])[O-])[C@@H](O)[C@H]3O)c2n1.[Na+].[Na+].[Na+].[Na+]	1.9 µmol/min/mg

* * *

The following molecules are shown together with reported Vmax values.
Organism: Bos taurus
Test name: Kinetic parameter Vmax value for Bovine spleen NTPDase1 hydrolysis.
Format: ADME
Condition details: cattle
Measured attribute: Vmax

Molecule	Observed value
Nc1ncnc2c1ncn2[C@@H]1O[C@H](COP(=O)([O-])OP(=O)([O-])OP(=O)([O-])[O-])[C@@H](O)[C@H]1O.[Na+].[Na+].[Na+].[Na+]	2.4 µmol/min/mg
[BH3-]P(=O)(OC[C@H]1O[C@@H](n2cnc3c(N)nc(Cl)nc32)[C@H](O)[C@@H]1O)OP(=O)([O-])OP(=O)([O-])[O-].[Na+].[Na+].[Na+].[Na+] (stereo partly drawn)	0.88 µmol/min/mg
Nc1nc(Cl)nc2c1ncn2[C@@H]1O[C@H](COP(=O)([O-])OP(=O)([O-])OP(=O)([O-])[O-])[C@@H](O)[C@H]1O.[Na+].[Na+].[Na+].[Na+]	1.9 µmol/min/mg

* * *

Test name: Half life was determined
Condition details: pH 1.4, 37 °C

Molecule	half-life
[BH3-]P(=O)(OC[C@H]1O[C@@H](n2cnc3c(N)nc(SC)nc32)[C@H](O)[C@@H]1O)OP(=O)([O-])OP(=O)([O-])[O-].[Na+].[Na+].[Na+].[Na+] (stereo partly specified)	5.9 h

* * *

System: NTPDase1
Test name: Kinetic parameter Km value for Bovine spleen NTPDase1 hydrolysis.
Type: ADME, Bos taurus
Condition details: cattle
The following compounds are shown together with reported Km values.

Compound	Km (µM)
Nc1nc(Cl)nc2c1ncn2[C@@H]1O[C@H](COP(=O)([O-])OP(=O)([O-])OP(=O)([O-])[O-])[C@@H](O)[C@H]1O.[Na+].[Na+].[Na+].[Na+]	12.9
[BH3-]P(=O)(OC[C@H]1O[C@@H](n2cnc3c(N)nc(Cl)nc32)[C@H](O)[C@@H]1O)OP(=O)([O-])OP(=O)([O-])[O-].[Na+].[Na+].[Na+].[Na+] (stereo partly drawn)	7.2
Nc1ncnc2c1ncn2[C@@H]1O[C@H](COP(=O)([O-])OP(=O)([O-])OP(=O)([O-])[O-])[C@@H](O)[C@H]1O.[Na+].[Na+].[Na+].[Na+]	15.9

* * *

Test name: Hydrolysis rate constant was determined
Type: ADME
Measured attribute: Hydrolysis rate constant (s⁻¹)

Molecule	Observed value
[BH3-]P(=O)(OC[C@H]1O[C@@H](n2cnc3c(N)nc(Cl)nc32)[C@H](O)[C@@H]1O)OP(=O)([O-])OP(=O)([O-])[O-].[Na+].[Na+].[Na+].[Na+] (stereo partly specified)	7.2e-05
